Biological target: human M1 receptor (hCHRM1) (Homo sapiens)
Sequence (P11229 1-460): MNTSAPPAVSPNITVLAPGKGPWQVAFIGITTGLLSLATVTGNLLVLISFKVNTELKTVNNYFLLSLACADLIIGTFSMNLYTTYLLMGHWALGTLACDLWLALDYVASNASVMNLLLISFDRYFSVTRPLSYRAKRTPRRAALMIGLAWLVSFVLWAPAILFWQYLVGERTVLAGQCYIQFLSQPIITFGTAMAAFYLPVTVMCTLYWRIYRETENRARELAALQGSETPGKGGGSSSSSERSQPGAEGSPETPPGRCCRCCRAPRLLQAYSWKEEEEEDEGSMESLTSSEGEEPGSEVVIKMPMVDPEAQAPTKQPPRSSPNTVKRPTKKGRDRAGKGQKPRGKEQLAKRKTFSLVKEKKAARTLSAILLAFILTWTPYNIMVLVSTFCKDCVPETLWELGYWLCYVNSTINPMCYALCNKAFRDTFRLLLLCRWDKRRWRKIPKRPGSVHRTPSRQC
Experiment: Measurement of M1 receptor positive allosteric modulator (M1PAM) activity, calcium fluorescence (FLIPRtetra) in CHO-K1 cells in the presence of acetylcholine at EC20
Conditions: inflection point of M1PAM activity, in the presence of acetylcholine at EC20 (final 0.6 nM), CHO-K1 cells expressing hCHRM1; read-out: IP value
Property Name: log10(EC50) (log10 of the value in nM)
// stored as log10 of EC50 expressed in nM

Here is how some compounds turned out for log10(EC50).
>  <Compound>
O=C1c2c(ccnc2OCC2CCCO2)CN1Cc1ccc(-c2cn[nH]c2)cc1 (stereo not drawn)

>  <log10(EC50)>
1.11

$$$$
>  <Compound>
Cc1nn(C)cc1-c1ccc(CN2Cc3ccnc(O[C@@H]4CCC[C@H]4O)c3C2=O)cc1 (single isomer, unassigned) [Example 256]

>  <log10(EC50)>
0.60

$$$$
>  <Compound>
O=C1c2c(O[C@@H]3CCCC[C@H]3O)ccc(F)c2CN1Cc1ccc(-n2cccn2)cc1 (relative stereo)

>  <log10(EC50)>
1.28

$$$$

*Q* Given O=C1c2c(cccc2O[C@@H]2CCOC[C@H]2O)CN1Cc1ccc(Br)cc1 (single isomer, unassigned) , state its recorded log10(EC50).
*A* 1.59
